assay-overview: Microsomal stability
Type: in vitro ADME, cat
settings: 1 μM inhibitor, microsomes 1 mg/mL, with NADPH, 37°C, 30 min; compound remaining, average ± SD (n = 3)
property-label: Stability (% without microsomes) Cat liver microsomes NADPH + (%)
Number in %, nothing else.

Below, 3 compounds whose answers are already recorded.
compound	unit-name	reported-value
O=C(Nc1ccc(OC(F)(F)F)cc1)N[C@H]1CC[C@H](Oc2ccc(C(=O)O)cc2)CC1 [1,728]	%	101
O=C(O)CCCCCCCCCCCNC(=O)NC12CC3CC(CC(C3)C1)C2 [compound 700]	%	28
N#CNC(=O)CCCCCCCCCCCNC(=O)NC12CC3CC(CC(C3)C1)C2 [1,845]	%	9

Which Stability (% without microsomes) Cat liver microsomes NADPH + is listed for O=C(NCCCCOc1ccc(F)cc1)NC12CC3CC(CC(C3)C1)C2 [1,707] ? 5

###

assay-overview: Solubility of inhibitors in different solvents
Assay type: physicochemical
settings: organic solvent or mixture, thermodynamic from solid; Carbitol, 30°C; read-out: Solubility
property-label: solubility at 24 h (mM)
// note: answer is a bare numeric in mM

Fill in the blank: the reported solubility at 24 h of "O=C(Nc1ccc(OC(F)(F)F)cc1)N[C@H]1CC[C@H](Oc2ccc(C(=O)O)cc2)CC1" is ____. 83

###

Here's what we have: pIC50 numbers for Horse sEH (Equus caballus, UniProt F7C407).
Scale explanation: pIC50 corresponds to minus log10 of a concentration expressed in moles per litre.

molecule	property-label	reported-value
N#CNC(=O)CCCCCCCCCCCNC(=O)NC12CC3CC(CC(C3)C1)C2 [1,845]	pIC50	9.40

Okay, now this molecule:
Provide the documented pIC50 with Horse sEH (Equus caballus, UniProt F7C407) as the system for O=C(NCCCCOc1ccc(F)cc1)NC12CC3CC(CC(C3)C1)C2 [1,707] 9.30

###

assay-overview: Solubility of inhibitors in different solvents
Assay type: physicochemical
settings: organic solvent or mixture, thermodynamic from solid; Glycerol, 30°C; read-out: Solubility in mg/mL
property-label: solubility at 24 h (mg/mL)
Numeric only. Scale: mg/mL

Entry O=C(Nc1ccc(OC(F)(F)F)cc1)N[C@H]1CC[C@H](Oc2ccc(C(=O)O)cc2)CC1 [1,728] has what solubility at 24 h? 0.06

###

assay-overview: Solubility of inhibitors in different solvents
Type: physicochemical
settings: aqueous buffer, thermodynamic from solid; Phosphate Buffer (0.1 M pH 7.4), 30°C; read-out: Solubility
property-label: solubility at 24 h (µM)
Give the number; µM is assumed, so skip it.

# get_value(readout='solubility at 24 h', item= "O=C(Nc1ccc(OC(F)(F)F)cc1)N[C@H]1CC[C@H](Oc2ccc(C(=O)O)cc2)CC1" ) 11

###

assay-overview: Solubility of inhibitors in different solvents
Format: physicochemical
settings: oil or lipid, thermodynamic from solid; Oleic rich oil, 30°C; read-out: Solubility in mg/mL
property-label: solubility at 24 h
Answer format: value, then unit.

Fill in the blank: the reported solubility at 24 h of O=C(Nc1ccc(OC(F)(F)F)cc1)N[C@H]1CC[C@H](Oc2ccc(C(=O)O)cc2)CC1 [1,728] is ____. 0.13 mg/mL

###

assay-overview: Solubility of inhibitors in different solvents
Assay type: physicochemical
settings: organic solvent or mixture, thermodynamic from solid; PEG400, 30°C; read-out: Solubility in mg/mL
property-label: solubility at 24 h (mg/mL)
Write it as a number; the unit mg/mL goes unstated.

solubility at 24 h for "O=C(Nc1ccc(OC(F)(F)F)cc1)N[C@H]1CC[C@H](Oc2ccc(C(=O)O)cc2)CC1" ? 18
